- protocol: in vivo
- recorded.conditions: Sprague-Dawley, rat, po, 5 mg/kg

smiles.data: CCCCCOC(=O)N1CCN(C(=O)[C@H](CCC(=O)O)NC(=O)c2cc(NCCO)cc(-c3ccccc3)n2)CC1
bioavailability (%): 8
--
smiles.data: CCOC(=O)N1CCN(C(=O)[C@H](CCC(=O)O)NC(=O)c2cccc(-c3ccccc3)n2)CC1
bioavailability (%): 34
--
smiles.data: CCCCOc1cc(C(=O)N[C@@H](CCC(=O)O)C(=O)N2CCN(C(=O)OCC)CC2)nc(-c2ccccc2)c1
bioavailability (%): 72
--
smiles.data: CCCCCOC(=O)N1CCN(C(=O)[C@H](CCC(=O)O)NC(=O)c2cc(O)cc(-c3ccccc3)n2)CC1
bioavailability (%): 66
--
smiles.data: CCCCCCOC(=O)N1CCN(C(=O)[C@H](CCC(=O)O)NC(=O)c2cc(OC3CCNCC3)cc(-c3ccccc3)n2)CC1
bioavailability (%): 1
--
smiles.data: CCOC(=O)N1CCN(C(=O)[C@H](CCC(=O)O)NC(=O)c2cc(OCCOC)cc(-c3ccccc3)n2)CC1
bioavailability (%): 33
--
smiles.data: CCCNc1cc(C(=O)N[C@@H](CCC(=O)O)C(=O)N2CCN(C(=O)OCC)CC2)nc(-c2ccccc2)c1
bioavailability (%): 80
